Recorded values, source ChEMBL document CHEMBL4184137.

system: Leishmania infantum; assay: Antiproliferative activity against promastigote stage of Leishmania infantum measured for 1 min and 45 secs by propidium iodide staining-based flow cytometry; format: functional, organism-based
testReadout: IC50

Ask: Quick one: IC50 of CC(NC(=O)c1ccccc1/N=C/c1c(O)ccc2ccccc12)c1ccccc1 (stereo unspecified) ?
Result: > 60 µM

----------
assay: Inhibition of Plasmodium falciparum Sir2A
*1 amine or outer side, *2 acyl side, *3 side chain or, on linkers, in order; H or OH if unused. Where a SMILES comes first, the peptide text is derived from it. Bridges are numbered along the chain shown (N, C = ends). [ ]: non-standard residue; d: D form. X1 = CC(C)CCCCCCCCC[C@H](CC(=O)[*:1])O[*:2]
Field: IC50. Provide a value for each of the compounds that follow.
One number for each entry, in µM.

Ask: Quick one: IC50 of CC(C)CCCCCCCCC[C@@H]1CC(=O)N[C@@H](CCC(=O)O)C(=O)N[C@@H](CC(C)C)C(=O)N[C@H](CC(C)C)C(=O)N[C@@H](C(C)C)C(=O)N[C@@H](CC(=O)O)C(=O)N[C@H](CC(C)C)C(=O)N[C@@H](CC(C)C)C(=O)O1 [SURFACTIN] (EL[dL]VD[dL]L; linker N-C via X1) ?
Result: 35

Now for a further compound.
Ask: Quick one: IC50 of NC(=O)c1cccnc1 [NIACINAMIDE] ?
Result: 51

----------
Field: IC50. Provide a value for each of the molecules that follow.
tested on: Leishmania infantum; experiment: Antileishmanial activity against amastigote stage of Leishmania infantum MHOM/MA671TMAP263 expressing luciferase after 72 hrs by luciferase assay; type: functional, organism-based; settings: MHOM/MA671TMAP263, 72 h
One number for each entry, in µM.

Ask: Quick one: IC50 of `O=C1c2cccc3cccc(c23)C(=O)N1CCCNCCCCCCCCCNCCCN1C(=O)c2cccc3cccc(c23)C1=O` ?
Result: 6.03

Now for a further molecule.
Ask: Quick one: IC50 of CC(NC(=O)c1ccccc1/N=C/c1c(O)ccc2ccccc12)c1ccccc1 (stereo not drawn) ?
Result: 30

----------
molecular target: UniProt:Q9XYC7; experiment: Inhibition of HDAC1 in Plasmodium falciparum 3D7 nuclear extract using Ac-RGK(Ac)-AMC fluorogenic peptide as substrate preincubated for 1 hr followed by substrate addition measured after 10 min by fluorescence assay
Sequence (Q9XYC7 whole entry): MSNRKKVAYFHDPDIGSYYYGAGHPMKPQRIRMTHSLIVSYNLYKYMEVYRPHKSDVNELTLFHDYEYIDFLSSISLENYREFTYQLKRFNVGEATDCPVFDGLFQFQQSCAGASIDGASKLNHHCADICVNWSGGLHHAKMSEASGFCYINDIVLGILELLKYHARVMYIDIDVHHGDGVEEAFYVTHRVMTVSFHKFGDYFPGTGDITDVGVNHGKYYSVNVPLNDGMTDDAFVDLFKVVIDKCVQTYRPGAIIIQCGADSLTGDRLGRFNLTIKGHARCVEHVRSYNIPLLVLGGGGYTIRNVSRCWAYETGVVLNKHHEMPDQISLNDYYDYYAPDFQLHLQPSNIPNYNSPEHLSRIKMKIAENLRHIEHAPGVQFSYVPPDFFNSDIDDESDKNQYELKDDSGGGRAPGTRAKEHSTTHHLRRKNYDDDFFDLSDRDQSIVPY
testReadout: pIC50
Numbers only, as −log10 of the molar value.

Ask: Quick one: pIC50 of `C/C=C1\NC(=O)[C@H]2CSSCC/C=C/[C@H](CC(=O)N[C@H](C(C)C)C(=O)N2)OC(=O)[C@H](C(C)C)NC1=O` ?
Result: 9.05

----------
assay: Selectivity index, ratio of IC50 for human NFF cells to IC50 for Plasmodium falciparum; assay type: toxicity; conditions: read-out: Ratio IC50
testReadout: selectivity ratio

These recorded examples may help you get a feel for the data.
Ask: Quick one: selectivity ratio of `C/C=C1\NC(=O)[C@H]2CSSCC/C=C/[C@H](CC(=O)N[C@H](C(C)C)C(=O)N2)OC(=O)[C@H](C(C)C)NC1=O` ?
Result: < 1

Ask: Would you mind doing `O=C(CCCCCONC(=O)Nc1cccc2ccccc12)NO` as well?
Result: 36 to 78

Now for a further compound.
Ask: Quick one: selectivity ratio of `CCCCc1nc2cc(/C=C/C(=O)NO)ccc2n1CCN(CC)CC` ?
Result: 4 to 1250

----------
Field: selectivity ratio. Provide a value for each of the compounds that follow.
test: Selectivity index, ratio of IC50 for African green monkey Vero cells to IC50 for Plasmodium falciparum D6; assay type: toxicity; details: read-out: Ratio IC50

Ask: Quick one: selectivity ratio of `CC[C@H]1OC(=O)[C@H](C)[C@@H](O[C@H]2C[C@@](C)(OC)[C@@H](O)[C@H](C)O2)[C@H](C)[C@@H](O[C@@H]2O[C@H](C)C[C@H](N(C)Cc3ccc(-c4cn(CCCCCCC(=O)NO)nn4)cc3)[C@H]2O)[C@](C)(O)C[C@@H](C)CN(C)[C@H](C)[C@@H](O)[C@]1(C)O` ?
Result: > 20.7

---
Ask: Quick one: selectivity ratio of `CC[C@H]1OC(=O)[C@H](C)[C@@H](O[C@H]2C[C@@](C)(OC)[C@@H](O)[C@H](C)O2)[C@H](C)[C@@H](O[C@@H]2O[C@H](C)C[C@H](N(C)Cc3ccc(-c4cn(CCCCCCCCCC(=O)NO)nn4)cc3)[C@H]2O)[C@](C)(O)C[C@@H](C)C(=O)[C@H](C)[C@@H](O)[C@]1(C)O` ?
Result: > 3.4

----------
Field: selectivity ratio. Provide a value for each of the compounds that follow.
assay: Selectivity index, ratio of IC50 for African green monkey Vero cells to IC50 for Plasmodium falciparum W2; format: toxicity; settings: read-out: Ratio IC50

Ask: Quick one: selectivity ratio of `CC[C@H]1OC(=O)[C@H](C)[C@@H](O[C@H]2C[C@@](C)(OC)[C@@H](O)[C@H](C)O2)[C@H](C)[C@@H](O[C@@H]2O[C@H](C)C[C@H](N(C)Cc3ccc(-c4cn(CCCCCCCCCC(=O)NO)nn4)cc3)[C@H]2O)[C@](C)(O)C[C@@H](C)C(=O)[C@H](C)[C@@H](O)[C@]1(C)O` ?
Result: > 6

Now for a further compound.
Ask: Quick one: selectivity ratio of `CC[C@H]1OC(=O)[C@H](C)[C@@H](O[C@H]2C[C@@](C)(OC)[C@@H](O)[C@H](C)O2)[C@H](C)[C@@H](O[C@@H]2O[C@H](C)C[C@H](N(C)Cc3ccc(-c4cn(CCCCCCC(=O)NO)nn4)cc3)[C@H]2O)[C@](C)(O)C[C@@H](C)CN(C)[C@H](C)[C@@H](O)[C@]1(C)O` ?
Result: > 47.6

----------
target: Putative silent information regulator 2 (Leishmania infantum); assay: Inhibition of N-terminal His6-tagged recombinant Leishmania infantum SIR2RP1 expressed in Escherichia coli in presence of NAD+ by fluorimetric method
Sequence (A0A6L0XH39 whole entry): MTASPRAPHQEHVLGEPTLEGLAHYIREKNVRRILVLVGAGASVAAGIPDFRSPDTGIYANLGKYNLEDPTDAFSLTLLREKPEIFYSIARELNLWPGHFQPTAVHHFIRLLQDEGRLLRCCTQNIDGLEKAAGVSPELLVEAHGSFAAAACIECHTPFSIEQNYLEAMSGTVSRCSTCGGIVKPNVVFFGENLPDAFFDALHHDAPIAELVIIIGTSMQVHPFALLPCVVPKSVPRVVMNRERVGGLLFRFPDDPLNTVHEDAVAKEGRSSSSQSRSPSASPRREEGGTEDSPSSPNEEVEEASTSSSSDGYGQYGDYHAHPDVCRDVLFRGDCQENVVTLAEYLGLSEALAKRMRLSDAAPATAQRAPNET
Field: IC50. Provide a value for each of the molecules that follow.

Ask: Quick one: IC50 of `O=C1c2cccc3cccc(c23)C(=O)N1CCNCCCCCCNCCN1C(=O)c2cccc3cccc(c23)C1=O` ?
Result: 5.7 to 54.7 µM

Ask: Would you mind doing `Cc1ccc(C(=O)Nc2ccc(S(=O)(=O)O)c3cc(S(=O)(=O)O)cc(S(=O)(=O)O)c23)cc1NC(=O)c1cccc(NC(=O)Nc2cccc(C(=O)Nc3cc(C(=O)Nc4ccc(S(=O)(=O)O)c5cc(S(=O)(=O)O)cc(S(=O)(=O)O)c45)ccc3C)c2)c1` as well?
Result: 7 µM

---
Ask: Quick one: IC50 of `O=C1c2cccc3cccc(c23)C(=O)N1CCNCCCCCCCCCCCCNCCN1C(=O)c2cccc3cccc(c23)C1=O` ?
Result: 5.7 to 54.7 µM

----------
test system: Toxoplasma gondii; assay: Antiparasitic activity against Toxoplasma gondii; assay type: functional, organism-based
testReadout: IC50

Ask: Quick one: IC50 of `CCC(=O)CCCCC[C@@H]1NC(=O)[C@H]2CCCCN2C(=O)[C@H]([C@@H](C)CC)NC(=O)[C@H](Cc2cn(OC)c3ccccc23)NC1=O` ?
Result: 13 to 15 nM

----------
tested on: Plasmodium falciparum; experiment: Antimalarial activity against Plasmodium falciparum; format: functional, organism-based
testReadout: pIC50
Give bare numbers, as −log10 of the molar value.

Ask: Quick one: pIC50 of `Oc1ccc(/C=C/c2cc(O)cc(O)c2)cc1` ?
Result: 4.22

----------
target: Histone deacetylase 8 (Homo sapiens)
Sequence (Q9BY41 whole entry): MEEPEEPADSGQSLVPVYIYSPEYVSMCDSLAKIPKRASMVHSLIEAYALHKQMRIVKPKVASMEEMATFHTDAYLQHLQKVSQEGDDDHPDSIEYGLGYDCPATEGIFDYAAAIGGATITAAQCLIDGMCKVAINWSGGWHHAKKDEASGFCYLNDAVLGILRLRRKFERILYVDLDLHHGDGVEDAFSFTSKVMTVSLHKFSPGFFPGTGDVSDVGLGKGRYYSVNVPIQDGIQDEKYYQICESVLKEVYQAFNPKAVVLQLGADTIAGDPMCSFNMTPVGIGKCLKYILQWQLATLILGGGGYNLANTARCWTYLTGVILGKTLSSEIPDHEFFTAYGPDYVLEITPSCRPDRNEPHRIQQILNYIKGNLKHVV
testReadout: pIC50
Give bare numbers, as −log10 of the molar value.

Ask: Quick one: pIC50 of `O=C(NO)c1sc2ccccc2c1Cl` ?
Result: 5.51

----------
tested on: Plasmodium falciparum; assay: Antimalarial activity against Plasmodium falciparum using Malstat reagent by parasite lactate dehydrogenase assay; type: functional, organism-based
pIC50: −log10 of the molar value.
testReadout: pIC50

These recorded examples may help you get a feel for the data.
Ask: Report pIC50 for `CC[C@H]1OC(=O)[C@H](C)[C@@H](O[C@H]2C[C@@](C)(OC)[C@@H](O)[C@H](C)O2)[C@H](C)[C@@H](O[C@@H]2O[C@H](C)C[C@H](N(C)Cc3ccc(-c4cn(CCCCCCC(=O)NO)nn4)cc3)[C@H]2O)[C@](C)(O)C[C@@H](C)CN(C)[C@H](C)[C@@H](O)[C@]1(C)O` tested on Plasmodium falciparum.
Result: 6.65 to 7.03

Ask: Would you mind doing `CC[C@H]1OC(=O)[C@H](C)[C@@H](O[C@H]2C[C@@](C)(OC)[C@@H](O)[C@H](C)O2)[C@H](C)[C@@H](O[C@@H]2O[C@H](C)C[C@H](N(C)Cc3ccc(-c4cn(CCCCCCCCCC(=O)NO)nn4)cc3)[C@H]2O)[C@](C)(O)C[C@@H](C)C(=O)[C@H](C)[C@@H](O)[C@]1(C)O` as well?
Result: 5.88 to 6.12

Now for a further compound.
Ask: Report pIC50 for `Cn1cc(C(=O)Cc2ccccc2)cc1/C=C/C(=O)NO` tested on Plasmodium falciparum.
Result: 5.40 to 5.92
